Measured pIC50, listed per entry.
Biological target: Human PD-L1/PD-1 (Homo sapiens)
Construct: TVMV protease cleavage site (C); made in house; host or cells: HEK293T cells
Sequence (Q9NZQ7 with tags, fused parts or gaps): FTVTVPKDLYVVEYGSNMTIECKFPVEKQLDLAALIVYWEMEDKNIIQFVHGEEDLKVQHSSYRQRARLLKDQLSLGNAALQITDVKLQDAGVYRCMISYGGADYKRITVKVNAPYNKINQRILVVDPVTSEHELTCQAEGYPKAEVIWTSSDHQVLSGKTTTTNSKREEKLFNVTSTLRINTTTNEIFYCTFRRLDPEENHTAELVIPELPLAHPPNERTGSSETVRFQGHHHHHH
Experiment: HTRF Human PD-L1/PD-1 binding assay (PD-1-Ig/PD-L1-His)
Settings: PD-L1-His 10 nM, PD-1-Ig 20 nM; class symbol; read-out: HTRF Human PD-L1/PD-1 Binding Assay IC50 Range
pIC50: −log10 of the molar value. Where a SMILES comes first, the peptide text is derived from it. Bridges are numbered along the chain shown (N, C = ends). [ ]: non-standard residue; d: D form. ξ: configuration not given here. Hyp = O=C(O)[C@@H]1C[C@@H](O)CN1; NMeNle = CCCC[C@H](NC)C(=O)O; NMeA = CN[C@@H](C)C(=O)O; Dab = NCC[C@H](N)C(=O)O; Dap = NC[C@H](N)C(=O)O; ξC = NC(CS)C(=O)O

Known pIC50 results, listed for orientation:
CCCC[C@H]1C(=O)N(C)[C@@H](CCCC)C(=O)N[C@@H](CCC(=O)O)C(=O)N[C@H](C(=O)NCC(N)=O)CSCC(=O)N[C@@H](Cc2ccc(O)cc2)C(=O)N(C)[C@@H](C)C(=O)N[C@@H](CC(=O)O)C(=O)N2CCC[C@H]2C(=O)N[C@@H](CN)C(=O)N[C@@H](CC(C)C)C(=O)N2C[C@H](O)C[C@H]2C(=O)N[C@@H](Cc2c[nH]c3ccccc23)C(=O)N[C@@H](CO)C(=O)N[C@@H](Cc2c[nH]c3ccccc23)C(=O)N1C [Example 5164] ({CH2CO}-Y[NMeA]DP[Dap]L[Hyp]WSW[NMeNle][NMeNle]ECG-NH2; thioether N-14)
8.00 to 9.00
CCCC[C@H]1C(=O)N(C)[C@@H](CCCC)C(=O)N[C@@H](CCC(=O)O)C(=O)N[C@H](C(=O)NCC(N)=O)CSCC(=O)N[C@@H](Cc2ccc(O)cc2)C(=O)N(C)[C@@H](C)C(=O)N[C@@H](CC(=O)O)C(=O)N2CCC[C@H]2C(=O)N[C@@H](CN)C(=O)N[C@@H](CCC(N)=O)C(=O)N2C[C@H](O)C[C@H]2C(=O)N[C@@H](Cc2c[nH]c3ccccc23)C(=O)N[C@@H](CO)C(=O)N[C@@H](Cc2c[nH]c3ccccc23)C(=O)N1C [Example 5246] ({CH2CO}-Y[NMeA]DP[Dap]Q[Hyp]WSW[NMeNle][NMeNle]ECG-NH2; thioether N-14)
8.00 to 9.00

Ask: Give pIC50 for CCCC[C@H]1C(=O)N(C)[C@@H](CCCC)C(=O)N[C@@H](CCC(=O)O)C(=O)NC(C(=O)NCC(N)=O)CSCC(=O)N[C@@H](Cc2ccc(O)cc2)C(=O)N(C)[C@@H](C)C(=O)N[C@@H](CC(N)=O)C(=O)N2CCC[C@H]2C(=O)N[C@@H](Cc2c[nH]cn2)C(=O)N[C@@H](CC(N)=O)C(=O)N2CCC[C@H]2C(=O)N[C@@H](Cc2c[nH]c3ccccc23)C(=O)N[C@@H](CCN)C(=O)N[C@@H](Cc2c[nH]c3ccccc23)C(=O)N1C (stereo partly drawn) [Example 9182] ({CH2CO}-Y[NMeA]NPHNPW[Dab]W[NMeNle][NMeNle]E[ξC]G-NH2; thioether N-14)
Result: 8.00 to 9.00
